Measured values drawn from PubChem BioAssay (NCI) for this set.

Please go through the items and note down their growth.
# System: A498 renal
# PROTOCOL SUMMARY: NCI-60 one-dose screen, 48 h (100 = growth as untreated, 0 = no growth, -100 = all killed)
# CONDITION LABEL: 10 µM unless noted
This is part of a sample that, as a whole, favours compounds with a hit. Of some 83,000 tested, about 20% had one in any assay.
Field format: number, assumed %, no unit text.

query: So what does the record say about growth for Clc1ccc2c(c1)C(c1c[nH]c3ccccc13)(c1c[nH]c3ccccc13)CCO2 ?
result: 101

query: Param item: COc1ccc(C2CC(c3ccc(Nc4nc(Nc5ccccc5)nc(Nc5ccccc5)n4)cc3)=NN2C(C)=O)cc1 (centres undefined)
result: 95.5

query: Param item: COc1ccc(Nc2ncc(Br)c(NCCCNC(=O)c3cccs3)n2)cc1
result: 51.7

query: Param item: COc1ccc(/C=C(\C#N)n2nnc3cc(Cl)ccc32)cc1
result: -23.5

query: Param item: Cc1cccc(CNc2c3ccccc3nc3ccccc23)c1
result: -2.22

query: Param item: COc1cc(C2CC(c3ccc(Nc4nc(Nc5ccc(Cl)cc5)nc(Nc5ccc(Cl)cc5)n4)cc3)=NN2C(C)=O)cc(OC)c1OC (centres undefined)
result: 113

query: Param item: O=C(NCCNc1nccc(Nc2ccc(S(=O)(=O)Nc3ccccn3)cc2)n1)c1cccc([N+](=O)[O-])c1
result: 83.6

query: Param item: CCSc1nc2scc(C)c2c(=O)[nH]1
result: 89.7

query: Param item: N#CC1=C(N)Oc2c(sc3c(Br)cccc23)C1c1ccc(Cl)cc1 (centres undefined)
result: 16.3

query: Param item: COC(=O)c1cc(N=C2NC(=O)/C(=C/C=C/c3ccccc3)S2)ccc1O
result: 17.6

query: Param item: COC12C=C/C(=C(/C(=O)OCc3ccncc3)C(=O)CCCCCCCCC3(OC)C=C/C(=C(/C(=O)OCc4ccncc4)C(=O)CCCCCCCC1)O3)O2
result: -87.6

query: Param item: COc1c(B(O)O)cccc1-c1cc(C)c2c(ccc3[nH]ncc32)n1
result: 8.91

query: Param item: Cc1ccc(NC(=O)Cn2cc(CN3CCN(c4ccnc5cc(Cl)ccc45)CC3)nn2)cc1
result: 88

query: Param item: O=C1c2c(c3c4ccccc4[nH]c3c3ccc4ccccc4c23)C(=O)N1CCN1CCNCC1
result: 61.2

query: Param item: CSc1nnc(-c2cc3c([nH]c4ccccc43)c(-c3cccc(O)c3)n2)n1-c1ccccc1
result: 25.5

query: Param item: CCn1c(SCC(=O)N/N=C(\C)c2ccc(Cl)cc2)nc2c1c(=O)n(C)c(=O)n2C
result: 91.3

query: Param item: CC1CN(S(=O)(=O)c2oc(-c3ccc(Cl)cc3)nc2C#N)CC(C)O1 (centres undefined)
result: 78.7

query: Param item: CSc1oc(C)nc1[P+](c1ccccc1)(c1ccccc1)c1ccccc1
result: 64.5

query: Param item: CN(c1cc2ncc(=O)[nH]c2cc1NC(N)=NCc1ccc(Cl)cc1)C1CCCCC1
result: 80.5

query: Param item: c1ccc(Cn2cc3c(c2)-c2oncc2CC3)cc1
result: 44.6

query: Param item: O=C1/C=C/[C@@H](O)[C@@H]2C[C@@H](O)C[C@H]2/C=C/CCC[C@H](CCc2ccccc2)O1
result: -28.2

query: Param item: Fc1ccc(CNc2c3ccccc3nc3ccccc23)c(F)c1
result: -4.38

query: Param item: COc1ccc(/C=C(\C#N)n2nnc3ccc(Cl)cc32)cc1
result: 79.7

query: Param item: NC(=O)c1c(NC(=O)c2ccc3ccccc3c2)sc2c1CCC(=O)C2
result: 95.2

query: Param item: Cc1cn(-c2cc(NC(=O)c3cncc(C#Cc4cnc(N)c5ncccc45)c3)cc(C(F)(F)F)c2)cn1
result: 60.7

query: Param item: O=C(CSc1nnc(-c2cnccn2)n1-c1ccccc1)c1ccc(Cl)cc1
result: 93.1

query: Param item: C=CCSc1nnc(NC(=O)CCl)s1
result: 90.3

query: Param item: COc1ccc(-c2cc(-c3cc(OC)c(OC)c(OC)c3)c(C#N)c(=O)n2CCCCC(=O)NO)cc1
result: 76.7

query: Param item: CSc1nc2ccccc2cc1/C=[N+](\[O-])c1ccccc1
result: 102

query: Param item: CCn1cc(C(=O)NNC(=S)Nc2ccc(C)cc2)c(=O)c2ccc(C)nc21
result: 76.4

query: Param item: COC(=O)/C=C1/SC(=Nc2cccc(OC)c2)N(CCc2c[nH]c3ccc(O)cc23)C1=O
result: 64.9

query: Param item: COc1cc(/C=C2/C=C(c3ccccc3)N(CCc3ccc(S(N)(=O)=O)cc3)C2=O)cc(OC)c1OC
result: 86.6

query: Param item: CC(=O)N1N=C(c2ccc(C(F)(F)F)c(F)c2)CC1c1[nH]c(C)c(C(=O)NCC(F)(F)F)c1C (centres undefined)
result: 54.9

query: Param item: O=C(CSc1nc2ccc([N+](=O)[O-])cc2[nH]1)Nc1ccc([N+](=O)[O-])cc1
result: -6.66

query: Param item: O=c1c2cccc3c(N4CCCC4)ccc(c32)c2nc3ccccc3n12
result: 38

query: Param item: CCCCCCCC[C@@H]1N[C@@H](C(=O)OC)Cc2c1[nH]c1ccccc21
result: 88.7

query: Param item: CCCCCOC(=O)c1c(C)[nH]c(/C=C2\N=C(c3ccc[nH]3)C=C2OC)c1C
result: -21

query: Param item: COc1ccc(NC(=O)c2sc3nc(C)c(C(=O)/C=C/c4ccccc4)cc3c2N)cc1
result: 21

query: Param item: N#Cc1c(-c2ccccc2)[nH]c2ncc(-c3ccccc3)n2c1=O
result: 102
